assay: Blood chemistries; type: in vivo, Zucker Fatty Rats; settings: Experiment 2; blood at end of study; Lo Asta, astaxanthin 5 mg/kg in feed
Attribute Measured: ALP (alkaline phosphatase)
The answer should read as a number with its unit following.

# input In one line, give reported ALP (alkaline phosphatase) of the entry CC1=C(/C=C/C(C)=C/C=C/C(C)=C/C=C/C=C(C)/C=C/C=C(C)/C=C/C2=C(C)C(=O)[C@@H](O)CC2(C)C)C(C)(C)C[C@H](O)C1=O [Asta, astaxanthin] .
# output 364 U/L

====

experiment: Blood chemistries; assay type: in vivo, Zucker Fatty Rats; conditions: Experiment 2; blood at end of study; Lo Asta, astaxanthin 5 mg/kg in feed
Attribute Measured: Potassium (mM)
Express your answer in mM, writing the number without its unit.

# input In one line, give reported Potassium of the entry "CC1=C(/C=C/C(C)=C/C=C/C(C)=C/C=C/C=C(C)/C=C/C=C(C)/C=C/C2=C(C)C(=O)[C@@H](O)CC2(C)C)C(C)(C)C[C@H](O)C1=O" .
# output 6.5

====

Assay: Blood chemistries
Type: in vivo, Zucker Fatty Rats
Conditions: Experiment 2; blood at end of study; captopril 30 mg/kg in feed
Excerpt: Blood for chemical analysis was obtained at the end of the study following removal of food four hours earlier. Blood chemistry values were obtained via dry chemistry procedures using a Johnson and Johnson (Langhorne, Pa.) Vitros® 250 instrument.
Attribute Measured: Potassium (mM)
Express your answer in mM, writing the number without its unit.

# input In one line, give reported Potassium of the entry C[C@H](CS)C(=O)N1CCC[C@H]1C(=O)O [Captopril, reference compound] .
# output 6

====

experiment: Blood chemistries; type: in vivo, Zucker Fatty Rats; details: Experiment 2; blood at end of study; Lo Asta, astaxanthin 5 mg/kg in feed
Attribute Measured: Sodium (mM)
Express your answer in mM, writing the number without its unit.

# input In one line, give reported Sodium of the entry CC1=C(/C=C/C(C)=C/C=C/C(C)=C/C=C/C=C(C)/C=C/C=C(C)/C=C/C2=C(C)C(=O)[C@@H](O)CC2(C)C)C(C)(C)C[C@H](O)C1=O [Asta, astaxanthin] .
# output 141

====

experiment: Blood chemistries; format: in vivo, Zucker Fatty Rats; settings: Experiment 2; blood at end of study; Lo Asta, astaxanthin 5 mg/kg in feed
Attribute Measured: CO2 (mM)
Express your answer in mM, writing the number without its unit.

# input In one line, give reported CO2 of the entry "CC1=C(/C=C/C(C)=C/C=C/C(C)=C/C=C/C=C(C)/C=C/C=C(C)/C=C/C2=C(C)C(=O)[C@@H](O)CC2(C)C)C(C)(C)C[C@H](O)C1=O" .
# output 22.5

====

assay: Blood chemistries; format: in vivo, Zucker Fatty Rats; details: Experiment 2; blood at end of study; captopril 30 mg/kg in feed
Attribute Measured: Sodium (mM)
Express your answer in mM, writing the number without its unit.

# input In one line, give reported Sodium of the entry C[C@H](CS)C(=O)N1CCC[C@H]1C(=O)O [Captopril, reference compound] .
# output 140

====

Experiment: Blood chemistries
Assay type: in vivo, Zucker Fatty Rats
Details: Experiment 2; blood at end of study; captopril 30 mg/kg in feed
Excerpt: Blood for chemical analysis was obtained at the end of the study following removal of food four hours earlier. Blood chemistry values were obtained via dry chemistry procedures using a Johnson and Johnson (Langhorne, Pa.) Vitros® 250 instrument.
Attribute Measured: ALP (alkaline phosphatase) (U/L)
Express your answer in U/L, writing the number without its unit.

# input In one line, give reported ALP (alkaline phosphatase) of the entry C[C@H](CS)C(=O)N1CCC[C@H]1C(=O)O [Captopril, reference compound] .
# output 333

====

experiment: Blood chemistries; assay type: in vivo, Zucker Fatty Rats; settings: Experiment 2; blood at end of study; Hi Asta, astaxanthin 25 mg/kg in feed
Attribute Measured: Sodium (mM)
Express your answer in mM, writing the number without its unit.

# input In one line, give reported Sodium of the entry "CC1=C(/C=C/C(C)=C/C=C/C(C)=C/C=C/C=C(C)/C=C/C=C(C)/C=C/C2=C(C)C(=O)[C@@H](O)CC2(C)C)C(C)(C)C[C@H](O)C1=O" .
# output 142

====

experiment: Blood chemistries; type: in vivo, Zucker Fatty Rats; conditions: Experiment 2; blood at end of study; captopril 30 mg/kg in feed
Attribute Measured: CO2 (mM)
Express your answer in mM, writing the number without its unit.

# input In one line, give reported CO2 of the entry C[C@H](CS)C(=O)N1CCC[C@H]1C(=O)O [Captopril, reference compound] .
# output 24.1

====

Test: Blood chemistries
Assay type: in vivo, Zucker Fatty Rats
Settings: Experiment 2; blood at end of study; Hi Asta, astaxanthin 25 mg/kg in feed
Text: Blood for chemical analysis was obtained at the end of the study following removal of food four hours earlier. Blood chemistry values were obtained via dry chemistry procedures using a Johnson and Johnson (Langhorne, Pa.) Vitros® 250 instrument.
Attribute Measured: Chloride (mM)
Express your answer in mM, writing the number without its unit.

# input In one line, give reported Chloride of the entry CC1=C(/C=C/C(C)=C/C=C/C(C)=C/C=C/C=C(C)/C=C/C=C(C)/C=C/C2=C(C)C(=O)[C@@H](O)CC2(C)C)C(C)(C)C[C@H](O)C1=O [Asta, astaxanthin] .
# output 98.9

====

test: Blood chemistries; type: in vivo, Zucker Fatty Rats; details: Experiment 2; blood at end of study; captopril 30 mg/kg in feed
Attribute Measured: Chloride (mM)
Express your answer in mM, writing the number without its unit.

# input In one line, give reported Chloride of the entry C[C@H](CS)C(=O)N1CCC[C@H]1C(=O)O [Captopril, reference compound] .
# output 98.6

====

assay: Blood chemistries; type: in vivo, Zucker Fatty Rats; conditions: Experiment 2; blood at end of study; Lo Asta, astaxanthin 5 mg/kg in feed
Attribute Measured: Chloride (mM)
Express your answer in mM, writing the number without its unit.

# input In one line, give reported Chloride of the entry CC1=C(/C=C/C(C)=C/C=C/C(C)=C/C=C/C=C(C)/C=C/C=C(C)/C=C/C2=C(C)C(=O)[C@@H](O)CC2(C)C)C(C)(C)C[C@H](O)C1=O [Asta, astaxanthin] .
# output 98.4

====

test: Blood chemistries; format: in vivo, Zucker Fatty Rats; conditions: Experiment 2; blood at end of study; Hi Asta, astaxanthin 25 mg/kg in feed
Attribute Measured: CO2 (mM)
Express your answer in mM, writing the number without its unit.

# input In one line, give reported CO2 of the entry CC1=C(/C=C/C(C)=C/C=C/C(C)=C/C=C/C=C(C)/C=C/C=C(C)/C=C/C2=C(C)C(=O)[C@@H](O)CC2(C)C)C(C)(C)C[C@H](O)C1=O [Asta, astaxanthin] .
# output 23.5
